biological target: CDK7/cyclinH/MAT1 trimeric complex (Homo sapiens); experiment: In vitro CDK7 assay, potency of irreversible covalent inhibitors (kinact/KI), coupled PK/LDH ADP readout at 340 nm; details: read-out: CDK7 (20 nM enz.) (kinact, s^−1), 20 nM enzyme
Experimental endpoint: kinact (s⁻¹)
Give bare numbers, in s⁻¹.

Recorded results for 10 molecules are shown here.
* C=CC(=O)N1CC(N2CCC(c3cc4c(c(C)n3)OCc3c(N5CCOCC5)ccnc3N4)N(C)CC2)C1 (stereo not shown) [Compound 367] | 3.37e-05
* C=CC(=O)N1CC(N2CCC(c3ccc4c(c3)Nc3nccc(N5CCS(=O)(=O)CC5)c3CO4)CC2)C1 [compound 14] | 7.07e-05
* C=CC(=O)N1CC[C@@H](N2CCC(c3ccc4c(c3)Nc3ncc(F)c(N5CCOCC5)c3CO4)CC2)C1 (single isomer, unassigned) [Compound 223] | 6.11e-05
* CC#CC(=O)N1CC[C@H](N2CC(c3cc(C)c4c(c3)Nc3nccc(N5CCOCC5)c3[C@H](C)O4)C2)C1 (single isomer, unassigned) [Compound 281] | 4.07e-05
* C=CC(=O)N1CCC(N2CC(c3cc(C)c4c(c3)Nc3nccc(-c5cnn(C)c5)c3CO4)C2)CC1 [Compound 338] | 4.86e-05
* C=CC(=O)N1CC(N2CC[C@@H](c3cc4c(c(C)n3)OCc3c(N5CCOCC5)ccnc3N4)N(C)CC2)C1 (single isomer, unassigned) [Compound 454] | 5.68e-05
* C=C(C(=O)N1CC[C@@H](N2CCC(c3cc4c(c(C)n3)OCc3c(-c5cnn(C)c5)ccnc3N4)CC2)C1)n1cccn1 (single isomer, unassigned) [Compound 365] | 4.07e-05
* C=CC(=O)N1CCC(N2CC(c3cc4c(c(CCC)n3)OCc3c(N5CCOCC5)ccnc3N4)C2)CC1 [Compound 348] | 5.99e-05
* C=CC(=O)N1CC(N2CCC(O)(c3cc(C)c4c(c3)Nc3nccc(N5CCOCC5)c3CO4)CC2)C1 [Compound 140] | 6.51e-05
* C=CC(=O)N1CC[C@@H](N2CC(c3cc4c(c(C5CC5)n3)O[C@H](C)c3c(N5CCOCC5)ccnc3N4)C2)C1 (single isomer, unassigned) [Compound 469] | 4.03e-05

Record kinact per entry; entries follow.
1. CC#CC(=O)N1CC(N2CCC(c3cc4c(c(-c5ncc[nH]5)n3)OCc3c(N5CCOCC5)ccnc3N4)CC2)C1 [Compound 369]
2. C=CC(=O)N1CC(N2CCC(c3cc(C)c4c(c3)Nc3ncc(C#N)c(N5CCOCC5)c3CO4)CC2)C1 [Compound 156]
3. CC#CC(=O)N1CC(N2CC[C@H](c3cc4c(c(C)n3)O[C@H](C)c3c(N5CCOCC5)ccnc3N4)N(C)CC2)C1 (single isomer, unassigned) [Compound 525]
4. C=CC(=O)N1CC(N2CC[C@H](c3cc4c(c(C)n3)OCc3c(N5CCOCC5)ccnc3N4)N(C)CC2)C1 (single isomer, unassigned) [Compound 452]
5. CC#CC(=O)N1CC(n2cc(-c3cc4c(c(C)n3)OC(C)c3c(N5CCOCC5)ccnc3N4)cn2)C1 (stereo not shown) [Compound 380]
6. C=CC(=O)N1CC(N2CC(c3cc4c(cn3)O[C@H](C)c3c(-c5cnn(C)c5)ccnc3N4)C2)C1 (single isomer, unassigned) [Compound 295]
7. CC#CC(=O)N1CC(N2CCC(c3cc4c(c(C5CC5)n3)OCc3c(C5CCOCC5)ccnc3N4)CC2)C1 [Compound 400]

1. 3e-05
2. 9.03e-05
3. 1.44e-05
4. 4.92e-05
5. 4.27e-05
6. 5.48e-05
7. 5.02e-05

Fill in kinact for each of the 6 molecules listed.
1. CC#CC(=O)N1CC[C@@H](N2CCC(c3cc4c(c(C)n3)OCc3c(N5CCOCC5)ccnc3N4)CC2)C1 (single isomer, unassigned) [Compound 310]
2. C=CC(=O)N1CC(N2CCC(c3cc(C)c4c(c3)Nc3nccc(C5=CCS(=O)(=O)CC5)c3CO4)CC2)C1 [Compound 81]
3. C=CC(=O)N1CC[C@@H](N2CC(c3cc4c(c(C5CC5)n3)O[C@@H](C)c3c(N5CCOCC5)ccnc3N4)C2)C1 (single isomer, unassigned) [Compound 467]
4. C=CC(=O)N1CC(N2CC[C@H](c3ccc4c(c3)Nc3nccc(N5CCOCC5)c3CO4)C(C)(C)C2)C1 (single isomer, unassigned) [Compound 67]
5. C=CC(=O)Nc1ccc(-c2cc3c(cn2)OCc2c(N4CCOCC4)ccnc2N3)cc1 [Compound 160]
6. C=CC(=O)N1CC(N2CCC(c3ccc4c(c3)Nc3nccc(N5CCOC6(CC6)C5)c3CO4)CC2)C1 [Compound 77]

1: 6.29e-05; 2: 4.29e-05; 3: 3.18e-05; 4: 6.48e-05; 5: 6.88e-05; 6: 5.75e-05

Could I get kinact for every one of these entries?
1. CC#CC(=O)N1CC(N2CCC(c3cc4c(c(C)n3)O[C@H](C)c3c(N5CCOCC5)ccnc3N4)CC2)C1 (single isomer, unassigned) [Compound 345]
2. C#CCCN(C)C/C=C/C(=O)N1CC(N2CCC(c3ccc4c(c3)Nc3nccc(N5CCOCC5)c3C(C)O4)CC2)C1 (racemic) [Compound 143]

1: 3.88e-05; 2: 6.96e-05

====

Can you tell me log10 Ki for the items I'm about to list?
target: CDK7/cyclinH/MAT1 trimeric complex (Homo sapiens); assay: In vitro CDK7 assay, potency of irreversible covalent inhibitors (kinact/KI), coupled PK/LDH ADP readout at 340 nm; details: CDK7 (20 nM enz.) (KI, μM), 20 nM enzyme
Heads up: the numbers are on a log10 scale; they represent Ki in µM.

* C=CC(=O)N1CC(N2CC(c3cc(C)c4c(c3)Nc3nccc(C5CCOCC5)c3[C@H](C)O4)C2)C1 (single isomer, unassigned) [Compound 252] | 1.41
* C=CC(=O)N1CC(N2CCC(c3ccc4c(c3)Nc3nccc(-c5cnn(C)c5)c3C(C)(C)O4)CC2)C1 [Compound 260] | -1.59
* C#Cc1cc2c(cc1C1CCN(C3CN(C(=O)C=C)C3)CC1)Nc1nccc(C3CCOCC3)c1C(C)O2 (stereo not shown) [Compound 169] | -1.27
* C=CC(=O)N1CCC(N2CC(c3cc(F)c4c(c3)Nc3nccc(C5CCOCC5)c3[C@H](C)O4)C2)CC1 (single isomer, unassigned) [Compound 155] | 0.32
* C=CC(=O)N1CC[C@@H](N2CC(c3cc4c(c(C)n3)O[C@H](C)c3c(N5CCOCC5)ccnc3N4)C2)C1 (single isomer, unassigned) [Compound 457] | -0.67

Please go through the list and note log10 Ki for each compound.
1. C=CC(=O)N1CC(N2CCCN(C)[C@H](c3cc(C)c4c(c3)Nc3nccc(C5CCOCC5)c3CO4)C2)C1 (single isomer, unassigned) [Compound 255]
2. C=CC(=O)N1CC(N2CCC(c3cc(Cl)c4c(c3)Nc3nccc(N5CCS(=O)(=O)CC5)c3CO4)CC2)C1 [Compound 103]
3. C=CC(=O)N1CC[C@H](N2CC(c3cc4c(c(C)n3)OCc3c(N5CCOCC5)ccnc3N4)C2)C1 (single isomer, unassigned) [compound 180]
4. CC#CC(=O)N1CC(N2CC[C@@H](c3cc4c(c(C)n3)O[C@@H](C)c3c(N5CCOCC5)ccnc3N4)N(C)CC2)C1 (single isomer, unassigned) [Compound 521]
5. C=CC(=O)N1CC(N2CCC(c3cc(F)c4c(c3)Nc3nccc(N5CCOCC5)c3CO4)CC2)C1 [Compound 62]
6. C=CC(=O)N1CC(N2CCC(c3cc4c(cn3)OCc3c(N5CCOCC5)ccnc3N4)CC2)C1 [Compound 137]

[1.03, -1.37, -1.34, 0.23, -1.58, -1.42]

I need log10 Ki for every entry listed below, if you could help.
1. C=CC(=O)N1CCC(N2CC(c3cc(F)c4c(c3)Nc3nccc(C5CCOCC5)c3CO4)C2)CC1 [Compound 112]
2. C=CC(=O)N1CCC(N2CC(c3cc4c(c(C#N)n3)O[C@@H](C)c3c(N5CCOCC5)ccnc3N4)C2)CC1 (single isomer, unassigned) [Compound 491]

-1.19
-0.39

====

target: CDK7/cyclinH/MAT1 trimeric complex (Homo sapiens, UniProt P50613); test: In vitro CDK7 assay, potency of irreversible covalent inhibitors (kinact/KI), coupled PK/LDH ADP readout at 340 nm; conditions: CDK7 (20 nM enz.) (KI, μM), 20 nM enzyme
Sequence (P50613 whole entry): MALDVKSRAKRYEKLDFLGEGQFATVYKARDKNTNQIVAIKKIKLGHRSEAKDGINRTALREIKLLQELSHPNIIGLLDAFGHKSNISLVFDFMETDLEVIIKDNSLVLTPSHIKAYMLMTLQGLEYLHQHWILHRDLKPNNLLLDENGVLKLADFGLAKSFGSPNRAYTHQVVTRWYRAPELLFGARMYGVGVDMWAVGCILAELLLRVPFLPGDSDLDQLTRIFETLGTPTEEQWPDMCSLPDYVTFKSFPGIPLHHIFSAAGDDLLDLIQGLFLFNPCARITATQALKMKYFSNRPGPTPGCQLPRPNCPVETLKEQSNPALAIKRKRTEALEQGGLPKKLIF
Sequence (P51946 whole entry partner): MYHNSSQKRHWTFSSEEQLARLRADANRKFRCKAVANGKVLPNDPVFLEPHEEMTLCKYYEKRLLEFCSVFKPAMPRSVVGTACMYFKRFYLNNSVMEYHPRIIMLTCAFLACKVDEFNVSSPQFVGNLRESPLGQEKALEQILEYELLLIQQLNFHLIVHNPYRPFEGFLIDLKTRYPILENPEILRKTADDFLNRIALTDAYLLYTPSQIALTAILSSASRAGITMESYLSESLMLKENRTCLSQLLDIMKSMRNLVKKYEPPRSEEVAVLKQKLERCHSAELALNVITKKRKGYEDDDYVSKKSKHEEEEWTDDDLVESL
Sequence (P51948 whole entry partner): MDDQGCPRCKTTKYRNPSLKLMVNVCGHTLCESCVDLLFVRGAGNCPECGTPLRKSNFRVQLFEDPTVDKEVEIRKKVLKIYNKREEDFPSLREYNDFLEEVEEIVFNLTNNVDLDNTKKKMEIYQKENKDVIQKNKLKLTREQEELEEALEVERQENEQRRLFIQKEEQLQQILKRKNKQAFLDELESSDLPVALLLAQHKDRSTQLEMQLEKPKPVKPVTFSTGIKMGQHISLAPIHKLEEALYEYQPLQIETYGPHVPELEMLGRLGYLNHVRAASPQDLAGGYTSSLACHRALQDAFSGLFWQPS
Experimental endpoint: Ki (µM)
Give bare numbers, in µM.

* C=CC(=O)N1CC[C@@H](N2CC(c3cc(C)c4c(c3)Nc3nccc(-c5cnn(C)c5)c3CO4)C2)[C@H](F)C1 (mixture of isomers) | 0.0523
* CC#CC(=O)N1CC[C@@H](N2CC(c3cc(C)c4c(c3)Nc3nccc(N5CCOCC5)c3[C@@H](C)O4)C2)C1 (single isomer, unassigned) | 0.0628

Provide measured Ki value, entry: C=CC(=O)N1CCC(N2CC(c3cc(Cl)c4c(c3C)Nc3nccc(C5CCOCC5)c3CO4)C2)CC1
0.397
